system: 186277-243-T-J2-PDC complex spheroid growth; assay: Anticancer human tumor 186277-243-T-J2-PDC patient-derived colon adenocarcinoma cell line growth inhibition [AhR]; details: second compound 1 µM; first compound 3.16 µM; stronger effect = lower value;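 note: luminescent signal used as a stand-in for viable cell amount; spheroids exposed to compounds for seven days before the viability read; 100% = DMSO vehicle control wells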
Here the recorded viability, T/C is given for each entry.
readoutKind: viability, T/C

# molecule, result
measured = [
    ("CC(C)c1c(-c2ccccc2)nc2c(C#N)c[nH]n2c1=O + Cc1ccccc1N=Nc1ccc(NC(=O)c2ccnn2C)c(C)c1", "98.3%"),
    ("Nc1ccccc1NC(=O)c1ccc(CNC(=O)OCc2cccnc2)cc1 + Cc1ccccc1N=Nc1ccc(NC(=O)c2ccnn2C)c(C)c1", "85.4%"),
    ("COc1ccc([C@@H](O)c2cc(-c3ncnc4cc(N5CCOCC5)ccc34)c(F)cc2Cl)nn1 + Cc1ccccc1N=Nc1ccc(NC(=O)c2ccnn2C)c(C)c1", "104%"),
    ("COc1cc(C2c3cc4c(cc3C(OC3OC5COC(C)OC5C(O)C3O)C3COC(=O)C23)OCO4)cc(OC)c1O (stereo unspecified) + Cc1ccccc1N=Nc1ccc(NC(=O)c2ccnn2C)c(C)c1", "76.2%"),
    ("COc1cc(C2c3cc4c(cc3C(OC3OC5COC(C)OC5C(O)C3O)C3COC(=O)C23)OCO4)cc(OC)c1O (stereo unspecified) + CC(CO)NC(=O)c1cc(-c2ccc(Cl)cc2)nn(-c2cnn(C)c2)c1=O", "16.4%"),
    ("CC1(C)CCC(CN2CCN(c3ccc(C(=O)NS(=O)(=O)c4ccc(NCC5CCOCC5)c([N+](=O)[O-])c4)c(Oc4cnc5[nH]ccc5c4)c3)CC2)=C(c2ccc(Cl)cc2)C1 + Cc1ccccc1N=Nc1ccc(NC(=O)c2ccnn2C)c(C)c1", "110%"),
]
